Where these numbers come from: patent US12187653B2

- measurement description: Cement binding: percent of species absorbed to cement, by ion chromatography
- assay setup: 1% acid in 2% KOH solution, 30 g solution on 3 g cement, 10 min
measurement kind: % adsorbed (%)
Only the number, expressed in %, is required.

Problem: Entry CC(C(=O)O)C(=O)O needs its % adsorbed filled in; supply it.
Result: 7.0

Problem: Answer with the recorded % adsorbed for the compound listed here: O=C(O)C(O)C(O)C(=O)O (racemic) [DL-Tartaric Acid]
Result: 31.6

Problem: Give the reported % adsorbed for this compound. C/C(=C/C(=O)O)C(=O)O
Result: 1.9

Problem: // Input: O=C(O)C(=O)O . Output its % adsorbed only.
Result: 94.8

Problem: Supply measured % adsorbed of O=C(O)c1ccccc1C(=O)O in your reply.
Result: 0

Problem: Return % adsorbed for the following compound: O=C(O)C(O)C(O)C(=O)O (stereo not drawn) [L Tartaric Acid]
Result: 21.5

Problem: Return % adsorbed (reported value) for this compound: O=C(O)C(O)C(O)C(=O)O (stereo not drawn) [D Tartaric Acid]
Result: 29.1

Problem: Specify reported % adsorbed for the compound shown: O=C(O)CCCC(=O)O
Result: 0

Problem: // fetch % adsorbed given entry O=C(O)CCC(=O)O
Result: 6.4

Problem: Fill in % adsorbed for record O=C(O)CC(=O)O
Result: 6.3

Problem: Fill in reported % adsorbed for this entry: O=C(O)CCCCC(=O)O
Result: 1.1

Problem: Answer with the recorded % adsorbed of C/C(=C\C(=O)O)C(=O)O only.
Result: 0
